Here, each record is paired with measured viability, T/C data.
# System: SW 1271 complex spheroids, viability
# experimentDescription: Anticancer human tumor SW 1271 cell line growth inhibition [LSD1];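 also: spheroids exposed to agents for 7 days before luminescence read; 100% = DMSO vehicle control viability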
# condition: second compound 10 µM; first compound 0.949 µM; stronger effect = lower value
The answer is to be given in %; state only the numeric part.

# annotated cases, reported viability, T/C shown
compound="COc1cc(C2c3cc4c(cc3C(OC3OC5COC(C)OC5C(O)C3O)C3COC(=O)C23)OCO4)cc(OC)c1O (stereo not given) + NC1CC1c1ccc(-c2cccc(O)c2)cc1" assayedsystem="SW 1271 complex spheroids, viability" assayresult=41.6
compound="CCN(c1cc(-c2ccc(CN3CCOCC3)cc2)cc(C(=O)NCc2c(C)cc(C)[nH]c2=O)c1C)C1CCOCC1 + NC1CC1c1ccc(-c2cccc(O)c2)cc1" assayedsystem="SW 1271 complex spheroids, viability" assayresult=58.7
compound="Nc1ccccc1NC(=O)c1ccc(CNC(=O)OCc2cccnc2)cc1 + NC1CC1c1ccc(-c2cccc(O)c2)cc1" assayedsystem="SW 1271 complex spheroids, viability" assayresult=11.7
compound="CCN(c1cc(-c2ccc(CN3CCOCC3)cc2)cc(C(=O)NCc2c(C)cc(C)[nH]c2=O)c1C)C1CCOCC1 + NC1CCC(NC2CC2c2ccccc2)CC1" assayedsystem="SW 1271 complex spheroids, viability" assayresult=72.9

Any idea what viability, T/C was measured for COc1cc(C2c3cc4c(cc3C(OC3OC5COC(C)OC5C(O)C3O)C3COC(=O)C23)OCO4)cc(OC)c1O (stereo not given) + NC1CCC(NC2CC2c2ccccc2)CC1 ?
58.4

Any idea what viability, T/C was measured for NS(=O)(=O)OCC1CC(n2ccc3c(NC4CCc5ccccc54)ncnc32)CC1O (stereo not given) + NC1CC1c1ccc(-c2cccc(O)c2)cc1 ?
87.3

Any idea what viability, T/C was measured for NS(=O)(=O)OCC1CC(n2ccc3c(NC4CCc5ccccc54)ncnc32)CC1O (stereo not given) + NC1CCC(NC2CC2c2ccccc2)CC1 ?
73.9

Any idea what viability, T/C was measured for O=C(C=Cc1cccc(S(=O)(=O)Nc2ccccc2)c1)NO + NC1CC1c1ccc(-c2cccc(O)c2)cc1 ?
5.74

Any idea what viability, T/C was measured for Nc1ccccc1NC(=O)c1ccc(CNC(=O)OCc2cccnc2)cc1 + NC1CCC(NC2CC2c2ccccc2)CC1 ?
11.2

Any idea what viability, T/C was measured for O=C(C=Cc1cccc(S(=O)(=O)Nc2ccccc2)c1)NO + NC1CCC(NC2CC2c2ccccc2)CC1 ?
7.93

====

# System: SW 1271 complex spheroids, viability
# experimentDescription: Anticancer human tumor SW 1271 cell line growth inhibition [LSD1];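 also: spheroids exposed to agents for 7 days before luminescence read; 100% = DMSO vehicle control viability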
# condition: second compound 10 µM; first compound 1 µM; stronger effect = lower value
outcomeMeasure: viability, T/C

molecule="CC1(C)CCC(CN2CCN(c3ccc(C(=O)NS(=O)(=O)c4ccc(NCC5CCOCC5)c([N+](=O)[O-])c4)c(Oc4cnc5[nH]ccc5c4)c3)CC2)=C(c2ccc(Cl)cc2)C1 + NC1CC1c1ccc(-c2cccc(O)c2)cc1" outcomemeasure="viability, T/C" assayresult=69.8%
molecule="COc1cc(Nc2ncc3c(n2)-c2ccc(Cl)cc2C(c2c(F)cccc2OC)=NC3)ccc1C(=O)O + NC1CCC(NC2CC2c2ccccc2)CC1" outcomemeasure="viability, T/C" assayresult=14.1%
molecule="CC1COCCN1c1cc(-c2ccnn2C)c2ccnc(-c3ccn[nH]3)c2n1 (centres undefined) + NC1CC1c1ccc(-c2cccc(O)c2)cc1" outcomemeasure="viability, T/C" assayresult=24.9%

Kindly review the next molecule as well.
Any idea what viability, T/C was measured for CC1COCCN1c1cc(C2(S(C)(=N)=O)CC2)nc(-c2ccnc3[nH]ccc23)n1 (centres undefined) + NC1CCC(NC2CC2c2ccccc2)CC1 ?
78.4%

====

Here, each record is paired with measured viability, T/C data.
# Test system: SW 1271 complex spheroids, viability
# experimentDescription: Anticancer human tumor SW 1271 cell line growth inhibition [LSD1];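 also: spheroids exposed to agents for 7 days before luminescence read; 100% = DMSO vehicle control viability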
# condition: second compound 0.1 µM; first compound 0.0949 µM; stronger effect = lower value
The answer is to be given in %; state only the numeric part.

# annotated cases, reported viability, T/C shown
molecule="NS(=O)(=O)OCC1CC(n2ccc3c(NC4CCc5ccccc54)ncnc32)CC1O (stereo unspecified) + NC1CC1c1ccc(-c2cccc(O)c2)cc1" outcomemeasure="viability, T/C" assayresult=103
molecule="CCc1c2c(nc3ccc(O)cc13)-c1cc3c(c(=O)n1C2)COC(=O)[C@]3(O)CC + NC1CC1c1ccc(-c2cccc(O)c2)cc1" outcomemeasure="viability, T/C" assayresult=8.27
molecule="O=C(C=Cc1cccc(S(=O)(=O)Nc2ccccc2)c1)NO + NC1CC1c1ccc(-c2cccc(O)c2)cc1" outcomemeasure="viability, T/C" assayresult=51.8
molecule="Nc1ccn(C2OC(CO)C(O)C2(F)F)c(=O)n1 (stereo unspecified) + NC1CC1c1ccc(-c2cccc(O)c2)cc1" outcomemeasure="viability, T/C" assayresult=64.9
molecule="COc1cc(C2c3cc4c(cc3C(OC3OC5COC(C)OC5C(O)C3O)C3COC(=O)C23)OCO4)cc(OC)c1O (stereo unspecified) + NC1CC1c1ccc(-c2cccc(O)c2)cc1" outcomemeasure="viability, T/C" assayresult=63.8

Any idea what viability, T/C was measured for CCc1c2c(nc3ccc(O)cc13)-c1cc3c(c(=O)n1C2)COC(=O)[C@]3(O)CC + NC1CCC(NC2CC2c2ccccc2)CC1 ?
5.77

Any idea what viability, T/C was measured for Nc1ccccc1NC(=O)c1ccc(CNC(=O)OCc2cccnc2)cc1 + NC1CC1c1ccc(-c2cccc(O)c2)cc1 ?
56.7

Any idea what viability, T/C was measured for Nc1ncn(C2CC(O)C(CO)S2)c(=O)n1 (stereo unspecified) + NC1CCC(NC2CC2c2ccccc2)CC1 ?
86.9

Any idea what viability, T/C was measured for COc1cc(C2c3cc4c(cc3C(OC3OC5COC(C)OC5C(O)C3O)C3COC(=O)C23)OCO4)cc(OC)c1O (stereo unspecified) + NC1CCC(NC2CC2c2ccccc2)CC1 ?
80.5

Any idea what viability, T/C was measured for Nc1ccccc1NC(=O)c1ccc(CNC(=O)OCc2cccnc2)cc1 + NC1CCC(NC2CC2c2ccccc2)CC1 ?
64.7

Any idea what viability, T/C was measured for CCN(c1cc(-c2ccc(CN3CCOCC3)cc2)cc(C(=O)NCc2c(C)cc(C)[nH]c2=O)c1C)C1CCOCC1 + NC1CC1c1ccc(-c2cccc(O)c2)cc1 ?
86

Any idea what viability, T/C was measured for O=C(C=Cc1cccc(S(=O)(=O)Nc2ccccc2)c1)NO + NC1CCC(NC2CC2c2ccccc2)CC1 ?
57.9

Any idea what viability, T/C was measured for Nc1ccn(C2OC(CO)C(O)C2(F)F)c(=O)n1 (stereo unspecified) + NC1CCC(NC2CC2c2ccccc2)CC1 ?
69.3

Any idea what viability, T/C was measured for Nc1ncn(C2CC(O)C(CO)S2)c(=O)n1 (stereo unspecified) + NC1CC1c1ccc(-c2cccc(O)c2)cc1 ?
82

Any idea what viability, T/C was measured for NS(=O)(=O)OCC1CC(n2ccc3c(NC4CCc5ccccc54)ncnc32)CC1O (stereo unspecified) + NC1CCC(NC2CC2c2ccccc2)CC1 ?
77.5

Any idea what viability, T/C was measured for CCN(c1cc(-c2ccc(CN3CCOCC3)cc2)cc(C(=O)NCc2c(C)cc(C)[nH]c2=O)c1C)C1CCOCC1 + NC1CCC(NC2CC2c2ccccc2)CC1 ?
93.6

====

Here, each record is paired with measured viability, T/C data.
# System: SW 1271 complex spheroids, viability
# experimentDescription: Anticancer human tumor SW 1271 cell line growth inhibition [LSD1];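 also: spheroids exposed to agents for 7 days before luminescence read; 100% = DMSO vehicle control viability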
# condition: second compound 10 µM; first compound 1 µM; stronger effect = lower value
The answer is to be given in %; state only the numeric part.

# annotated cases, reported viability, T/C shown
compound="COc1ccc([C@@H](O)c2cc(-c3ncnc4cc(N5CCOCC5)ccc34)c(F)cc2Cl)nn1 + NC1CCC(NC2CC2c2ccccc2)CC1" outcomemeasure="viability, T/C" assayresult=49
compound="CC1(C)CCC(CN2CCN(c3ccc(C(=O)NS(=O)(=O)c4ccc(NCC5CCOCC5)c([N+](=O)[O-])c4)c(Oc4cnc5[nH]ccc5c4)c3)CC2)=C(c2ccc(Cl)cc2)C1 + NC1CCC(NC2CC2c2ccccc2)CC1" outcomemeasure="viability, T/C" assayresult=95.4
compound="CC(C)c1c(-c2ccccc2)nc2c(C#N)c[nH]n2c1=O + NC1CCC(NC2CC2c2ccccc2)CC1" outcomemeasure="viability, T/C" assayresult=65.5
compound="CC(C)c1c(-c2ccccc2)nc2c(C#N)c[nH]n2c1=O + NC1CC1c1ccc(-c2cccc(O)c2)cc1" outcomemeasure="viability, T/C" assayresult=61.6
compound="O=C(c1cc(Cc2n[nH]c(=O)c3ccccc23)ccc1F)N1CCN(C(=O)C2CC2)CC1 + NC1CC1c1ccc(-c2cccc(O)c2)cc1" outcomemeasure="viability, T/C" assayresult=57.9
compound="COc1cc(Nc2ncc3c(n2)-c2ccc(Cl)cc2C(c2c(F)cccc2OC)=NC3)ccc1C(=O)O + NC1CC1c1ccc(-c2cccc(O)c2)cc1" outcomemeasure="viability, T/C" assayresult=17.2

Any idea what viability, T/C was measured for CC1COCCN1c1cc(-c2ccnn2C)c2ccnc(-c3ccn[nH]3)c2n1 (centres undefined) + NC1CCC(NC2CC2c2ccccc2)CC1 ?
29.9
